Assay: Pharmacokinetic study in mice (plasma and brain), with estimated free drug concentrations
Format: in vivo, mouse
Details: male, C57BL/6, mouse, brain, sc, 10 mg/kg, 0.5 h; mice, 10 mg/kg s.c.; individual animals; read-out: Free Brain Concentration
Counter-ions that a name gives are not always drawn.
test_readout: concentration at 0.5 h (nM)
Field: numeric (nM). Do not append units.

Q: # return recorded concentration at 0.5 h for entry CCC1CC2CC3c4[nH]c5ccc(O)cc5c4CCN(C2)C13 (stereo not shown) [Noribogaine, Noribogaine hydrochloride]
Ans: 1720

---

Test: Pharmacokinetic study in mice (plasma and brain), with estimated free drug concentrations
Format: in vivo, mouse
Details: male, C57BL/6, mouse, plasma, sc, 10 mg/kg, 2 h; mice, 10 mg/kg s.c.; individual animals; read-out: Plasma Concentration (total)
Structures can show the parent of a compound that is named as a salt.
test_readout: concentration at 2 h (µM)
Lab book: enter the figure in µM, no units written.

Q: Give reported concentration at 2 h value for CCC1CC2CC3c4[nH]c5ccc(O)cc5c4CCN(C2)C13 (stereo not shown) [Noribogaine, Noribogaine hydrochloride]
Ans: 3.43
